test system: RBM10 RRM1-ZnF (GST-tagged construct); test: RNAcompete 7-mer binding Z-score; higher = stronger binding preference;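 also: 20 pmol protein with 1.5 nmol RNA pool for 30 min at 4°C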
In all, about 16,000 sequences were measured (“Z-score”: median about -0.37, highest 2% from about 3.2 on). The sample holds the highest values, similar sequences and a random draw of the others, so the mix is not that of the screen.
READOUT_LABEL: RNAcompete 7-mer binding Z-score
Give only the figure.

Solved cases (3 shown):
{"columns": ["RECORD_SEQUENCE", "RNAcompete 7-mer binding Z-score"],
 "data": [
  ["AUGGGCU", 1.6],
  ["AGCUAAG", -0.035],
  ["UGGUGUG", 2.77]
]}

Fill in: RNAcompete 7-mer binding Z-score of CUGGGAU is ___
1.11

Could you share which RNAcompete 7-mer binding Z-score value was measured for GGGUGUG ?
3.76

Which RNAcompete 7-mer binding Z-score reading was recorded for the sequence GUCCGGU ?
0.082

Tell me the measured RNAcompete 7-mer binding Z-score of GACGGGU , please.
2.36

So what does the record say about RNAcompete 7-mer binding Z-score for CUGUACU ?
-0.743

====

Some sequences, each annotated with its measured RNAcompete 7-mer binding Z-score.
system: RBM10 RRM1-ZnF (GST-tagged construct); assay: RNAcompete 7-mer binding Z-score; higher = stronger binding preference;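 also: 20 pmol protein with 1.5 nmol RNA pool for 30 min at 4°C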
In all, about 16,000 sequences were measured (“Z-score”: median about -0.37, highest 2% from about 3.2 on). The full list was thinned out, with the highest values kept by preference.

Worked cases, answers included:
{"columns": ["RECORD_SEQUENCE", "READOUT_LABEL", "MEASUREMENT"],
 "data": [
  ["GGAUUGU", "RNAcompete 7-mer binding Z-score", 1.22],
  ["CAUUUAC", "RNAcompete 7-mer binding Z-score", -0.85],
  ["CGAACGG", "RNAcompete 7-mer binding Z-score", 1.21],
  ["UGGACGG", "RNAcompete 7-mer binding Z-score", 3.09],
  ["AGAACGG", "RNAcompete 7-mer binding Z-score", 1.53]
]}

Under RBM10 RRM1-ZnF (GST-tagged construct): RNAcompete 7-mer binding Z-score value of GGAGCGC ?
1.27

Reported RNAcompete 7-mer binding Z-score for RBM10 RRM1-ZnF (GST-tagged construct), given CCACGUA ?
-0.578

Request - read-out RNAcompete 7-mer binding Z-score | tested on RBM10 RRM1-ZnF (GST-tagged construct) | sequence GGGAUGA;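 also: 20 pmol protein with 1.5 nmol RNA pool for 30 min at 4°C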
4.17

Quick check: RNAcompete 7-mer binding Z-score on RBM10 RRM1-ZnF (GST-tagged construct), item GCAAAAC ?
-0.0902

Fill in the recorded RNAcompete 7-mer binding Z-score for this sequence, with RBM10 RRM1-ZnF (GST-tagged construct) as test system: GAUAUGC
-0.0577

====

tested on: RBM10 RRM1-ZnF (GST-tagged construct); assay: RNAcompete 7-mer binding Z-score; higher = stronger binding preference;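 also: 20 pmol protein with 1.5 nmol RNA pool for 30 min at 4°C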
Whole data set: some 16,000 sequences, median “Z-score” near -0.37, cut for the highest 2% near 3.2. Only a selection was taken, and the highest values are over-represented in it overall.
READOUT_LABEL: RNAcompete 7-mer binding Z-score
Write the number on its own, no unit after it.

{"columns": ["RECORD_SEQUENCE", "RNAcompete 7-mer binding Z-score"],
 "data": [
  ["GUGUGGU", 2.39],
  ["GGGUGGA", 4.53],
  ["UUUCUUA", -0.727]
]}

Quick one: RNAcompete 7-mer binding Z-score for GAUCAGA ?
0.316

# get_value(readout='RNAcompete 7-mer binding Z-score', item= GUCUCAU )
-0.642

Can you look up the measured RNAcompete 7-mer binding Z-score of CGGUGGA for me?
2.43

Returns the measured RNAcompete 7-mer binding Z-score for the input sequence. Input: UGGGUUA
3.28

Fill blank: measured RNAcompete 7-mer binding Z-score of the sequence UGGGAAA is ____.
2.58

Entry CAAAGGU : reported RNAcompete 7-mer binding Z-score = ?
1.15

Using the record for AUAAGGG , report its RNAcompete 7-mer binding Z-score.
3.77

// returns reported RNAcompete 7-mer binding Z-score for input AGGGUUC
0.985

Tell me the measured RNAcompete 7-mer binding Z-score of AGGUGGU , please.
2.18

====

tested on: RBM10 RRM1-ZnF (GST-tagged construct); test: RNAcompete 7-mer binding Z-score; higher = stronger binding preference;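 also: 20 pmol protein with 1.5 nmol RNA pool for 30 min at 4°C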
Over roughly 16,000 sequences, “Z-score” has its median near -0.37; the highest 2% begin near 3.2. For the sample, the highest values were picked, then their nearest neighbours and some sequences at random.
# label = Condition met if RNAcompete 7-mer binding Z-score >= 0.3 else Condition not met

Some solved cases for reference:
{"columns": ["RECORD_SEQUENCE", "GROUP"],
 "data": [
  ["UGAAGGA", "Condition met"],
  ["CAGCGUC", "Condition not met"],
  ["CAGGGGU", "Condition met"],
  ["UAUAAUA", "Condition not met"],
  ["CGAAUGG", "Condition met"],
  ["CGGGAAU", "Condition met"],
  ["UAGGGGA", "Condition met"],
  ["CGGGUGA", "Condition met"]
]}

Assess whether reported RNAcompete 7-mer binding Z-score for UGAAGGC sits at 0.3 or higher.
Condition met

RNAcompete 7-mer binding Z-score >= 0.3 for CAUCUCA ?
Condition not met

Is RNAcompete 7-mer binding Z-score at least 0.3? Consider ACGGGGG
Condition met

Textbook exercise: given the entry CAGGUUG , state whether its RNAcompete 7-mer binding Z-score is greater than or equal to 0.3.
Condition met

Can UGCCGAC be said to have RNAcompete 7-mer binding Z-score at or above 0.3?
Condition not met

Reported RNAcompete 7-mer binding Z-score at or above 0.3? UGGGCUG
Condition met

Please indicate if the recorded RNAcompete 7-mer binding Z-score for GGAAUGU meets or exceeds 0.3.
Condition met

Hi team, for GCAGCGC , is the recorded RNAcompete 7-mer binding Z-score at or above 0.3?
Condition not met

====

# Lookup of reported RNAcompete 7-mer binding Z-score keyed by entry
test system: RBM10 RRM1-ZnF (GST-tagged construct); experiment: RNAcompete 7-mer binding Z-score; higher = stronger binding preference;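 also: 20 pmol protein with 1.5 nmol RNA pool for 30 min at 4°C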
In all, about 16,000 sequences were measured (“Z-score”: median about -0.37, highest 2% from about 3.2 on). The entries come from a sample that favours the highest values as a whole.
Lab note: jot the number down without any unit.

Please review the following examples before continuing.
{"columns": ["RECORD_SEQUENCE", "READOUT_LABEL", "MEASUREMENT"],
 "data": [
  ["UCCUUUG", "RNAcompete 7-mer binding Z-score", -0.876],
  ["AACUCUA", "RNAcompete 7-mer binding Z-score", -0.854],
  ["CGACGCA", "RNAcompete 7-mer binding Z-score", -0.36],
  ["CGUGAUC", "RNAcompete 7-mer binding Z-score", -0.704]
]}

May I ask what RNAcompete 7-mer binding Z-score has been recorded for UCCUUGC ?
-0.733

Can you look up the measured RNAcompete 7-mer binding Z-score of AAUUUGA for me?
-0.399

May I ask what RNAcompete 7-mer binding Z-score has been recorded for GGGCAUA ?
1.66

GET /values?readout=RNAcompete 7-mer binding Z-score&item= UGGGCCU
0.335

Entry AAACUAG has what RNAcompete 7-mer binding Z-score?
-0.327

Return reported RNAcompete 7-mer binding Z-score; argument: CCAGACC
-0.642

Look at this sequence and give its reported RNAcompete 7-mer binding Z-score. AUCUUAU
-0.863

====

tested on: RBM10 RRM1-ZnF (GST-tagged construct); experiment: RNAcompete 7-mer binding Z-score; higher = stronger binding preference;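 also: 20 pmol protein with 1.5 nmol RNA pool for 30 min at 4°C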
Over roughly 16,000 sequences, “Z-score” has its median near -0.37; the highest 2% begin near 3.2. This is one part of a sample in which the highest values are shown more often than they occur.
READOUT_LABEL: RNAcompete 7-mer binding Z-score
Form field (numeric): enter value without unit.

{"columns": ["RECORD_SEQUENCE", "RNAcompete 7-mer binding Z-score"],
 "data": [
  ["ACUAGGA", 0.719],
  ["CGGUUAG", 0.881],
  ["GGGUUGG", 4.64],
  ["CUCGCAC", -0.587],
  ["GGGUUGA", 3.8],
  ["CGCUAUC", -0.668]
]}

Would you kindly share the measured RNAcompete 7-mer binding Z-score for AUACAAU ?
-0.539

Give its RNAcompete 7-mer binding Z-score value. Item: CCCCCAU
-0.448

// lookup RNAcompete 7-mer binding Z-score for GGGUUAG
4.38

RNAcompete 7-mer binding Z-score lookup needed for UGGUUAG , thanks.
2.24

Look up RNAcompete 7-mer binding Z-score: AGGUUGG
3.06

====

Below, each entry is listed alongside its reported RNAcompete 7-mer binding Z-score.
tested on: RBM10 RRM1-ZnF (GST-tagged construct); experiment: RNAcompete 7-mer binding Z-score; higher = stronger binding preference;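 also: 20 pmol protein with 1.5 nmol RNA pool for 30 min at 4°C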
Whole data set: some 16,000 sequences, median “Z-score” near -0.37, cut for the highest 2% near 3.2. Many of the other results were omitted from the sample, so the highest values are more common in it than they were.
Reply briefly: the number, and no unit.

{"columns": ["RECORD_SEQUENCE", "MEASUREMENT"],
 "data": [
  ["AGGGACG", 2.13],
  ["AGGGAUG", 4.59],
  ["UAGUUAA", -0.373]
]}

Attention now shifts to the item below.
Could you tell me which RNAcompete 7-mer binding Z-score is on file for UGAGCGG ?
2.38

The origin of these recorded values is the supplement of paper PMC5499739.
